src = PubChem BioAssay AID1850

Catalogue of inhibition readings, one per entry.
protocol_description: PhoP regulon inhibitors, Salmonella typhi PhoP promoter GFP reporter, confirmatory (AID 1850);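 note: 0% = induced wells with vehicle and 100% = uninduced wells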
applied_conditions: fluorescence, 4 h, at 50 µM, active compounds read high
The campaign covered roughly 310,000 compounds. About 1,000 (0.32%) were called active. Not all results are given here. Entries with a potency or affinity are not part of this list.
Write the value in % as a bare number.

| compound | recorded_number |
| --- | --- |
| CC(=O)Nc1ccc(S(=O)(=O)NCCCc2ccccc2)cc1 | -4.81 |
| CCOc1ccc(Nc2cc(C)c3ccccc3n2)cc1 | 10.8 |
| Cc1nc(SCC(=O)c2ccccc2)[nH]c(=O)c1Oc1ccc(Cl)cc1 | -6 |
| Cc1cc(OCC(=O)N2CCC(C(=O)O)(c3ccccc3)CC2)c2c(C)c(C)c(=O)oc2c1 | 1.07 |

Prompt: Give the measured inhibition of O=C(NCCCSc1ccccc1)c1ccc(=O)[nH]c1 .
Completion: -9.17

Prompt: Please give the result for O=C(N/N=C\c1ccc(O)c([N+](=O)[O-])c1)C1COc2ccccc2O1 (centres undefined) too.
Completion: 1.19

Prompt: Same lookup for CC(C)CN1C2CCCC1CC(NC(=O)c1ccc([N+](=O)[O-])cc1)C2 (centres undefined) , please.
Completion: 3.6

Prompt: Query CC(C)=C(NC(=O)c1ccccc1Br)C(=O)NCCc1nc2ccccc2[nH]1 next
Completion: 3.02

Prompt: // query: Cc1cccc(OCc2nnc(SCC(=O)c3ccccc3)o2)c1
Completion: 5.39

Prompt: Try this compound too: OC(CNCc1ccccc1)COc1ccccc1 (centres undefined)
Completion: 18.5
